- TARGET_DESC: plasma kallikrein (Homo sapiens, UniProt P03952)
- Construct: from tissue
- Sequence (P03952 391-638 limits assumed): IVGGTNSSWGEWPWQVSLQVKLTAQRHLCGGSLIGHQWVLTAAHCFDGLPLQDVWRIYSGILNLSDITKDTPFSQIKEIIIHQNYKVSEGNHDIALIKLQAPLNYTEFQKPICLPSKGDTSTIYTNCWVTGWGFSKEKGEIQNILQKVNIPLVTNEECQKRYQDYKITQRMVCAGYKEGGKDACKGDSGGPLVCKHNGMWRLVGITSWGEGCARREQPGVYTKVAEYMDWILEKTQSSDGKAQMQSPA
- Sequence (P03952 20-390 partner limits assumed): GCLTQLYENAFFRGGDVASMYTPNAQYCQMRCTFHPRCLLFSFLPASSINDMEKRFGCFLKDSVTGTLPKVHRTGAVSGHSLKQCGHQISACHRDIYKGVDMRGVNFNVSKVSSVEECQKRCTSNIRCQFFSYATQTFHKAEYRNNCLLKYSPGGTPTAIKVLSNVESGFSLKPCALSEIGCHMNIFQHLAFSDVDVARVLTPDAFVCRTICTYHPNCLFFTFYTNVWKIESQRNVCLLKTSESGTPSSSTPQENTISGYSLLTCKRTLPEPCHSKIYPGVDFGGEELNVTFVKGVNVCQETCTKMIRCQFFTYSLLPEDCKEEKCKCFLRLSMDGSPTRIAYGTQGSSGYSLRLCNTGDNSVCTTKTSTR
- ASSAY_METHOD_TEXT: Neat human plasma assay, FXIIa contact pathway-activated, PFR-AMC substrate
- Type: biochemical
- COND: citrated human plasma 78% final, 10 nM human FXIIa, 100 μM PFR-AMC; read-out: Human Plasma Assay: IC90
- Method: To analyze inhibition of plasma kallikrein in an ex vivo setting, the potency of compounds was measure in contact pathway-activated plasma assays. In a fluorogenic peptide substrate assay, test compounds dissolved in DMSO were added to sodium citrate collected human or rat plasma in a 96-well microplate. […] Fluorescence was immediately monitored by excitation/emission wavelengths of 360 nm/480 nm respectively over a period of 5 minutes in a microplate reader. […]
PROPERTY: IC90

- COc1cc(N2CC(=O)N(C)C2=O)c2nc([C@@H](C)Nc3cc(NC(=O)[C@H]4C[C@@H]4c4nccc(C)n4)ncn3)cn2c1 [Example 415]: < 400 nM
- O=C(Nc1cc(NCc2cn3cc(C4CC4)cc(N4CCN5CCCC5C4)c3n2)ncn1)[C@H]1C[C@@H]1c1cccc(Cl)c1 (stereo partly drawn) [Example I-200]: 400 to 1500 nM
- NCc1cc(C2CC2)cn2cc(CNc3ccnc(NC(=O)[C@H]4C[C@@H]4c4cccc(Cl)c4)c3)nc12 [Example 293]: 1500 to 10000 nM
- CN1C(=O)CN(c2cc(C3CC3)cn3cc(CNc4cc(NC(=O)[C@H]5C[C@@H]5c5nccc(CF)n5)ncn4)nc23)C1=O (racemic) [Example I-163]: 400 to 1500 nM
- COCc1cnc(NC(=O)[C@H]2C[C@@H]2c2nccc(C)n2)nc1NCc1cn2cc(C3CC3)cc(N3CC(=O)N(C)C3=O)c2n1 (racemic) [Example 621]: < 400 nM
- Cc1cc(C)nc([C@H]2C[C@@H]2C(=O)Nc2cc(NCc3cn4cc(C5CC5)cc(N5CC(=O)N(C)C5=O)c4n3)ncn2)n1 (racemic) [Example 497]: 400 to 1500 nM
- N#Cc1ccc(Cl)c(F)c1[C@H]1C[C@@H]1C(=O)Nc1cc(NCc2cn3cc(C4CC4)ccc3n2)ncn1 (racemic) [Example 50]: 10000 to 48000 nM
- [2H]C([2H])(Nc1cc(NC(=O)[C@H]2C[C@@H]2c2nccc(C)n2)ncn1)c1cn2cc(C3CC3)cc(N3CC(=O)N(C)C3=O)c2n1 (racemic) [Example 391]: < 400 nM
- CN1CN(c2cc(C3CC3)cn3cc(CNc4cc(NC(=O)[C@H]5C[C@@H]5c5cccc(Cl)c5)ncn4)nc23)CC1=O [Example I-9]: 1500 to 10000 nM
- Cc1ccnc([C@H]2C[C@@H]2C(=O)Nc2cc(N[C@H](C)c3cn4cc(C5CC5)cc(N5CC6(COC6)CC5=O)c4n3)nc(C)n2)n1 [Example I-27]: < 400 nM
- Cc1ccnc([C@H]2C[C@@H]2C(=O)Nc2cc(N[C@H](C)c3cn4cc(C5CC5)cc(N5CCCC5=O)c4n3)ncn2)n1 [Example 418]: < 400 nM
- Cc1ccnc([C@H]2C[C@@H]2C(=O)Nc2cc(NCc3cn4cc(C5CC5)cc(N5CC(=O)N(C)C5=O)c4n3)nc(C3(O)COC3)n2)n1 (racemic) [Example 113]: 400 to 1500 nM
- COc1nc(NC(=O)[C@H]2C[C@@H]2c2nccc(C)n2)cc(N(C)Cc2cn3cc(C4CC4)cc(N4CC(=O)N(C)C4=O)c3n2)n1 [Example 406]: < 400 nM
- O=C(Nc1cc(NCc2cn3cc(C4CC4)ccc3n2)ccn1)[C@H]1C[C@@H]1c1cc(Cl)ccc1[N+](=O)[O-] (racemic) [Example I-223]: > 48000 nM
- Cc1ccnc([C@H]2C[C@@H]2C(=O)Nc2ncc(CO)c(NCc3cn4cc(C5CC5)cc(N5CC(=O)N(C)C5=O)c4n3)n2)n1 (racemic) [Example 627]: < 400 nM
- Cc1ccnc([C@H]2C[C@@H]2C(=O)Nc2cc(N[C@H](C)c3cn4cc(C5CC5)cc(S(C)(=O)=O)c4n3)nc(C)n2)n1 [Example 361]: 400 to 1500 nM
- O=C(Nc1cc(NCc2cn3cc(C4CC4)ccc3n2)nc(=O)[nH]1)[C@H]1C[C@@H]1c1cccc(Cl)c1 [Example 296]: 1500 to 10000 nM
- O=C(Nc1cc(NCc2cn3cc(C4CC4)cc(N4CCN(CCO)CC4)c3n2)ccn1)[C@H]1C[C@@H]1c1cccc(Cl)c1 [Example 603]: < 400 nM
- Cc1cc(N2CC(=O)N(C)C2=O)c2nc([C@@H](C)Nc3cc(NC(=O)[C@H]4C[C@@H]4c4nccc(C)n4)nc(C)n3)cn2c1 [Example 434]: < 400 nM
- CN1CC(F)(c2cc(C3CC3)cn3cc(CNc4ccnc(NC(=O)[C@H]5C[C@@H]5c5cccc(Cl)c5)c4)nc23)C1 [Example I-227]: < 400 nM
- Cc1ccc(F)c([C@H]2C[C@@H]2C(=O)Nc2cc(NCc3cn4cc(C5CC5)cc(N5CC(=O)N(C)C5=O)c4n3)ncn2)n1 (racemic) [Example 502]: 400 to 1500 nM
